The reported numbers originate from paper PMC11520566.

target-under-test: CDK2/cyclin A2 (Homo sapiens)
Construct: purchased Promega
protocol-description: In vitro CDK2/cyclin A2 enzyme inhibition assay (ADP-Glo)
Format: biochemical
experimental-context: supplement S1; DMSO = 100; screen at 50 μM
experimental-endpoint: Relative activity

line-notation: O=C1NN=C(Nc2ccccc2)C1=NNc1ccc(F)cc1
experimental-endpoint: Relative activity
observed-measurement: 55.6

I = CC(=O)N(C(C)=O)c1[nH]nc(Nc2ccccc2)c1C#N
II = COc1ccc(C(=O)Nc2[nH]nc(Nc3ccccc3)c2C#N)cc1
# input Lab log: flag the item ( I or II ) with the smaller Relative activity figure. Give the label under which the chosen entry appears.
# output II
(II: 27.1, I: 49.9)
